- System: Plasmodium falciparum
- PROCEDURE DETAILS: GSK_TCMDC: Inhibition of Plasmodium falciparum 3D7 in whole red blood cells, using parasite LDH activity as an index of growth. Test compounds present at 2uM
- Assay type: functional
PARAMETER: Inhibition (%)
Write down the numeric answer in % and omit the unit.

For the compound CC(=O)N(Cc1ccccc1-c1ccc(CNCCc2ccccc2)cc1)C1CCN(Cc2ccccc2)CC1.O=C(O)C(F)(F)F , give its reported Inhibition.
100

Respond only with Inhibition recorded for COc1ccc(CC(C)NCC(O)c2cccc(Cl)c2)cc1C (stereo not given)
89

Give the measured Inhibition for COc1cc(C=CC(=O)N2CCC(CN3CCC(c4c[nH]c5ccccc45)CC3)CC2)ccc1O
82

Identify Inhibition associated with the compound CN(c1cc(NC(=O)c2cccs2)ccn1)C1CCN(Cc2cccc(F)c2)CC1.O=C(O)C(F)(F)F
94

Report Inhibition for O=C(/C=C/c1ccc(Cl)c(Cl)c1)NC1CCC(N2CCC(c3c[nH]c4ccc(O)cc34)CC2)CC1 (stereo not given)
97

Could you please provide reported Inhibition for O=C(/C=C/c1c(Cl)cccc1Cl)NC1CCC(CN2C3CCC2CC(c2c[nH]c4ccccc24)C3)CC1 (stereo not given) ? Thanks!
95

Indicate its recorded Inhibition; the compound in question is Clc1ccc2nccc(N3CCC(CN4CCC(c5c[nH]c6ccccc56)CC4)CC3)c2c1.O=C(O)C(F)(F)F
100

# return recorded Inhibition for input CC[C@H]1CN2CC[C@H]1C[C@@H]2[C@@H](O)c1cc(Cl)nc2ccc(OC)cc12
98

Output measured Inhibition for this item: CC(Cc1ccc(OC2CCCCC2)cc1)NCC(O)c1cccc(Cl)c1.Cl (stereo not given)
99

State its Inhibition: Cc1[nH]c2ccc(NS(C)(=O)=O)cc2c1C1CCN(CC2CCN(C(=O)/C=C/c3ccc(Cl)c(Cl)c3)CC2)CC1
99
